run-description: Tmax in Beagle dog at 10 mg/kg, po measured up to 24 hrs by LC-MS/MS analysis
Assay type: ADME, organism-based, Canis lupus familiaris
condition-parameters: in vivo

- molecule: "Cn1c(=O)n(C2CCC(=O)NC2=O)c2cccc(C#CCO[C@H]3CC[C@H](CN4CCC5(CC4)Cc4cc(NC(=O)c6coc7cccnc67)c(N6CCC(CO)CC6)cc4O5)CC3)c21 (stereo partly specified)"
  uom: "h"
  Tmax: 4

---

# Vd listing for each entry below
run-description: Volume of distribution at steady state in male C57BL/6 mouse at 2 mg/kg, iv measured up to 24 hrs by LC-MS/MS analysis
Format: ADME, organism-based
condition-parameters: in vivo, read-out: Vdss
value-type: Vd (L/kg)

- compound: "Cn1c(=O)n(C2CCC(=O)NC2=O)c2cccc(C#CCO[C@H]3CC[C@H](CN4CCC5(CC4)Cc4cc(NC(=O)c6cnn7cc(F)cnc67)c(N6CCC(CO)CC6)cc4O5)CC3)c21 (stereo not given in full)"
  uom: "L/kg"
  experimental-value: 0.96
- compound: "Cn1c(=O)n(C2CCC(=O)NC2=O)c2cccc(C#CCO[C@H]3CC[C@H](CN4CCC5(CC4)Cc4cc(NC(=O)c6cnc7cccnn67)c(N6CCC(CO)CC6)cc4O5)CC3)c21 (stereo not given in full)"
  uom: "L/kg"
  experimental-value: 1.66
- compound: "Cn1c(=O)n(C2CCC(=O)NC2=O)c2cccc(C#CCO[C@H]3CC[C@H](CN4CCC5(CC4)Cc4cc(NC(=O)c6cnn7cccnc67)c(N6CCC(CO)CC6)cc4O5)CC3)c21 (stereo not given in full)"
  uom: "L/kg"
  experimental-value: 0.94
- compound: "Cn1c(=O)n(C2CCC(=O)NC2=O)c2cccc(C#CCO[C@H]3CC[C@H](CN4CCC5(CC4)Cc4cc(NC(=O)c6cnn7cccnc67)c(N6CCC(O)CC6)cc4O5)CC3)c21 (stereo not given in full)"
  uom: "L/kg"
  experimental-value: 0.6
- compound: "Cn1c(=O)n(C2CCC(=O)NC2=O)c2cccc(C#CCO[C@H]3CC[C@H](CN4CCC5(CC4)Cc4cc(NC(=O)c6coc7cccnc67)c(N6CCC(CO)CC6)cc4O5)CC3)c21 (stereo not given in full)"
  uom: "L/kg"
  experimental-value: 0.88

---

run-description: Metabolic stability in dog liver microsome assessed as half life at 1 uM measured up to 60 mins in presence of NADPH by LC-MS/MS analysis
Assay type: ADME, Canis lupus familiaris
condition-parameters: liver microsomes

- compound: "Cn1c(=O)n(C2CCC(=O)NC2=O)c2cccc(CN3CCC(CCN4CCC5(CC4)Cc4cc(NC(=O)c6cnn7cccnc67)c(N6CCC(CO)CC6)cc4O5)CC3)c21 (stereo not given)"
  uom: "h"
  relation-qualifier: "="
  half-life at 1 µM: 1.55
- compound: "Cn1c(=O)n(C2CCC(=O)NC2=O)c2cccc(C#CCOC3CCN(C(=O)CN4CCC5(CC4)Cc4cc(NC(=O)c6cnn7cccnc67)c(N6CCC(CO)CC6)cc4O5)CC3)c21 (stereo not given)"
  uom: "h"
  relation-qualifier: "="
  half-life at 1 µM: 0.1
- compound: "Cn1c(=O)n(C2CCC(=O)NC2=O)c2cccc(C#CCO[C@H]3CC[C@](F)(CN4CCC5(CC4)Cc4cc(NC(=O)c6cnn7cccnc67)c(N6CCC(CO)CC6)cc4O5)CC3)c21 (stereo not given in full)"
  uom: "h"
  relation-qualifier: ">"
  half-life at 1 µM: 3.07
- compound: "Cn1c(=O)n(C2CCC(=O)NC2=O)c2cccc(C#CCO[C@H]3CC[C@H](CN4CCC5(CC4)Cc4cc(NC(=O)c6coc7cccnc67)c(N6CCC(CO)CC6)cc4O5)CC3)c21 (stereo not given in full)"
  uom: "h"
  relation-qualifier: ">"
  half-life at 1 µM: 3.07
- compound: "Cn1c(=O)n(C2CCC(=O)NC2=O)c2cccc(C#CCO[C@H]3CC[C@H](CN4CCC5(CC4)Cc4cc(NC(=O)c6cnn7cc(Cl)cnc67)c(N6CCC(CO)CC6)cc4O5)CC3)c21 (stereo not given in full)"
  uom: "h"
  relation-qualifier: ">"
  half-life at 1 µM: 3.07
